Origin of values: paper PMC9911399

Molecular target: T1, RBFOX1 RRM (Homo sapiens, UniProt Q9NWB1 109-208)
T1 sequence: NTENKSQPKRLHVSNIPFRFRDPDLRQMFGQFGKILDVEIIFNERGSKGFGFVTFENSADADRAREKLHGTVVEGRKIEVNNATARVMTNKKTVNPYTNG
Test: EMSA; HiTS-Eq, 1 nM pool, 10 min; buffer printed only for the single-RNA assays: 10 mM Tris pH 7.5, 150 mM NaCl, 3.4 mM EDTA, 0.001% NP-40, 30 C
Conditions: tags: His6 N-terminal (pET28a); label: 5' 32P
Whole data set: some 16,000 sequences, median “ka relative to ugcaugu” near 0.0091, cut for the highest 2% near 0.032. This excerpt belongs to a sample that is enriched for the highest values.
property_label: binding signal

binder	experimental_result
UGGGGAA (DNA:RNA) RNA: GGGAGACCGGAAUUCAGAUUGUCCUGGGGAAUUAAAUCCCGUCGUAGCCACCA DNA 1: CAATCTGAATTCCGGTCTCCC DNA 2: TGGTGGCTACGACGGGATT	0.0174 KA relative to UGCAUGU

Q: Given the binder UGGGUGU (DNA:RNA) RNA: GGGAGACCGGAAUUCAGAUUGUCCUGGGUGUUUAAAUCCCGUCGUAGCCACCA DNA 1: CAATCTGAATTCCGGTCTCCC DNA 2: TGGTGGCTACGACGGGATT , what is its reported binding signal?
Result: 0.0478 KA relative to UGCAUGU
